The measurements presented in this section are drawn from the kinase profiling compilation of Christmann-Franck et al. (2016).

Target: NEK4 (human) (UniProt P51957)
Sequence (P51957 whole entry, looked up): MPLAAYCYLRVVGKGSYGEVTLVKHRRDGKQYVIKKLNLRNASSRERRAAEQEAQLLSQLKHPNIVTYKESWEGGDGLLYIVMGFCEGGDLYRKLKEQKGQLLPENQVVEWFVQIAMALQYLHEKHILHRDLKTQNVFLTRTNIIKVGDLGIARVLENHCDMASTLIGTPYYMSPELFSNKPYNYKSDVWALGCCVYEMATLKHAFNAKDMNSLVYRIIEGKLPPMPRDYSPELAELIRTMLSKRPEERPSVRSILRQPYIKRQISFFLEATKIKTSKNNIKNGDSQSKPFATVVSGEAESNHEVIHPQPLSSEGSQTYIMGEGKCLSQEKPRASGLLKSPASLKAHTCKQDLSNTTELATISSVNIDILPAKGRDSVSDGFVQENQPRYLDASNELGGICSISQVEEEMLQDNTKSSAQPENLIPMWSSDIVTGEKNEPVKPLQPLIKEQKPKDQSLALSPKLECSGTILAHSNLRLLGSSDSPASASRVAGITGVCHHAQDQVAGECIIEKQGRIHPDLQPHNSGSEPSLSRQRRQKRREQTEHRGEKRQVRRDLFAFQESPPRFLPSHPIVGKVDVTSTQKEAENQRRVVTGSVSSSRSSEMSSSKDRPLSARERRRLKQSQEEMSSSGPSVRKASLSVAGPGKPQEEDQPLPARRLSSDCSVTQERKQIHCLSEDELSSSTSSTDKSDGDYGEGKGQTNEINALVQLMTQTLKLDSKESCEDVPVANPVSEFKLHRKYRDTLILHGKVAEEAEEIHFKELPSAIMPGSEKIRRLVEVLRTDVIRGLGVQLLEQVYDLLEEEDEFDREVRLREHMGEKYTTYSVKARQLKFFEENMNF
Assay: radiometric filter-binding kinase assay, Kinase HotSpot
Conditions: compound 0.5 µM; ATP 10 µM

compound	residual activity, %
Cc1ccc(NC(=O)c2ccc(CN3CCN(C)CC3)cc2)cc1Nc1nc(-c2cccnc2)cs1	92.4
Nc1n[nH]c2nnc(-c3c(-c4ccccc4)nn4ccccc34)cc12	88.4
O=c1cc(-c2cccc3c2Sc2ccccc2S3)oc(N2CCOCC2)c1	90
O=C(NC(NC(=S)Nc1ccc(F)c([N+](=O)[O-])c1)C(Cl)(Cl)Cl)C(c1ccccc1)c1ccccc1 (centres undefined)	87.8

###

Target: UniProt:P45983
Sequence (P45983 whole entry, looked up): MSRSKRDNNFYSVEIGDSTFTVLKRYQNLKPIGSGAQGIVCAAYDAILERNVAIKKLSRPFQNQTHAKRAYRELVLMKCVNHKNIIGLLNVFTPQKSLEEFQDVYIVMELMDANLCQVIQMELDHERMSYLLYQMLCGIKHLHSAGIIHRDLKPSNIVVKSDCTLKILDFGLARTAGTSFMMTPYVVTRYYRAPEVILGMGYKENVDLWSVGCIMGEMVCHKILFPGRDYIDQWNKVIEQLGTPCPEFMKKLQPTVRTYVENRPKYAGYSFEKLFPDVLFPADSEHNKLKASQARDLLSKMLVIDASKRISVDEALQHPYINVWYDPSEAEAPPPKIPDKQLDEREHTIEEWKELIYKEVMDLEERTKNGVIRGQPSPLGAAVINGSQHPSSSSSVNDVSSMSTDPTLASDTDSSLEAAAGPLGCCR
Assay: radiometric filter-binding kinase assay, Kinase HotSpot
Conditions: compound 0.5 µM; ATP 10 µM

compound	unit abbrev	residual activity
NC(=O)c1ccc(N(C(N)=O)c2c(F)cccc2F)nc1-c1ccc(F)cc1F	%	100
O=C(NC(NC(=S)Nc1ccc(F)c([N+](=O)[O-])c1)C(Cl)(Cl)Cl)C(c1ccccc1)c1ccccc1 (centres undefined)	%	82.1
O=C1Cc2c([nH]c3ccc([N+](=O)[O-])cc23)-c2ccccc2N1	%	99.6
Clc1ccc(Nc2nnc(Cc3ccncc3)c3ccccc23)cc1	%	98.2
CS(=O)c1ccc(-c2nc(-c3ccc(F)cc3)c(-c3ccncc3)[nH]2)cc1 (centres undefined)	%	96.1
Oc1ccc(-c2nc(-c3ccc(F)cc3)c(-c3ccncc3)[nH]2)cc1	%	98
CCN1/C(=C/C(C)=O)Sc2ccc(OC)cc21	%	102
COc1cc2nccc(Oc3ccc(NC(=S)NC(=O)c4ccccc4C)cc3)c2cc1OC	%	81.3
CCCNC(=O)Nc1ccc(Oc2ncnc3cc(OC)c(OC)cc23)cc1Cl	%	107
CC(C)n1cnc2c(Nc3cccc(Cl)c3)nc(NCCO)nc21	%	94.8
O=c1cc(-c2cccc3c2Sc2ccccc2S3)oc(N2CCOCC2)c1	%	84
CC(C)[C@H](CO)Nc1nc(Nc2cccc(Cl)c2)c2ncn(C(C)C)c2n1	%	99
O=C(Nc1ccc(Cl)cc1)c1ccccc1NCc1ccncc1	%	109
Nc1nc(Nc2ccc(S(N)(=O)=O)cc2)nn1C(=O)c1c(F)cccc1F	%	85.9
Cc1ccc(NC(=O)c2ccc(CN3CCN(C)CC3)cc2)cc1Nc1nc(-c2cccnc2)cs1	%	107
COc1cc2ncnc(Nc3ccc(F)c(Cl)c3)c2cc1OCCCN1CCOCC1	%	93.1
CSc1nc(-c2ccc(F)cc2)c(-c2ccnc(NC(C)c3ccccc3)c2)[nH]1 (centres undefined)	%	86.3
O=c1cc(N2CCNCC2)oc2c(-c3ccccc3)cccc12	%	89.3
O=C1Nc2cc(Br)ccc2/C1=C1/Nc2ccccc2/C1=N\O	%	98.7
